read-out: ABC Transporter (ABCB1), ABCB1 (gene 5243); assay: LTEA_HepaRG_ABCB1: Life Technologies and Expression Analysis (LTEA) Assay for ABC Transporter (ABCB1) using HepaRG (AID 2283460); details: mRNA level, 48 h; actives raise or lower the signal
Activity calls are given as the source filed them. The calls were made as follows: active = hit-call score of the fitted dose curve at least 0.9, where 1 is the maximum; inactive = score below 0.9.
Outcome codes: YES for active, NO for inactive

# COMPOUND, CAT
rows = [
    ("Cc1c(COC(=O)[C@@H]2[C@H](/C=C(\\Cl)C(F)(F)F)C2(C)C)cccc1-c1ccccc1", "YES"),
    ("CCOP(=S)(OCC)Oc1nc(Cl)n(C(C)C)n1", "NO"),
    ("N#Cc1c(Cl)cccc1Cl", "NO"),
    ("CNC(=O)N(C)c1nnc(C(C)(C)C)s1", "NO"),
    ("Clc1cccc(C(Cl)(Cl)Cl)n1", "NO"),
    ("CC(C)=CC1C(C(=O)OCc2coc(Cc3ccccc3)c2)C1(C)C (stereo not given)", "YES"),
    ("COc1ccc(-c2ccccc2)cc1NNC(=O)OC(C)C", "NO"),
    ("CCOc1cc(C(C)(C)C)ccc1C1COC(c2c(F)cccc2F)=N1 (stereo not given)", "YES"),
    ("CC(C)Nc1nc(Cl)nc(NC(C)C)n1", "YES"),
    ("CCOc1nc(F)cc2nc(S(=O)(=O)Nc3c(Cl)cccc3Cl)nn12", "NO"),
    ("CO/N=C(/C1=NOCCO1)c1ccccc1Oc1ncnc(Oc2ccccc2Cl)c1F", "NO"),
    ("CC(C)Oc1cccc(NC(=O)c2ccccc2C(F)(F)F)c1", "YES"),
    ("O=P(O)(O)CCCl", "NO"),
    ("CCOP(=O)(OCC)Oc1nc(Cl)c(Cl)cc1Cl", "NO"),
    ("COC(=O)N(C(=O)N1CO[C@@]2(C(=O)OC)Cc3cc(Cl)ccc3C2=N1)c1ccc(OC(F)(F)F)cc1", "NO"),
]
